Recorded viability, T/C by entry
test system: 699152-130-R-J1-PDC complex spheroid growth; experiment: Anticancer human tumor 699152-130-R-J1-PDC patient-derived pancreatic carcinoma cell line growth inhibition [AhR]; conditions: second compound 10 µM; first compound 0.03 µM; stronger effect = lower value
Respond numerically; units are % and should not be typed.

Take a look at these entries with their results.
Reported viability, T/C for 699152-130-R-J1-PDC complex spheroid growth, given Nc1ncn(C2CC(O)C(CO)S2)c(=O)n1 (stereo unspecified) + Cc1cncc(-c2nc(NCCc3c[nH]c4ccccc34)c3ncn(C(C)C)c3n2)c1 ?
22.5

Now consider O=C(C=Cn1cnc(-c2cc(C(F)(F)F)cc(C(F)(F)F)c2)n1)NNc1cnccn1 + CC(CO)NC(=O)c1cc(-c2ccc(Cl)cc2)nn(-c2cnn(C)c2)c1=O .
82.1

Now consider CCN(c1cc(-c2ccc(CN3CCOCC3)cc2)cc(C(=O)NCc2c(C)cc(C)[nH]c2=O)c1C)C1CCOCC1 + Cc1ccccc1N=Nc1ccc(NC(=O)c2ccnn2C)c(C)c1 .
113

Now consider Nc1ncn(C2CC(O)C(CO)S2)c(=O)n1 (stereo unspecified) + Cc1ccccc1N=Nc1ccc(NC(=O)c2ccnn2C)c(C)c1 .
111

Now consider CCN(c1cc(-c2ccc(CN3CCOCC3)cc2)cc(C(=O)NCc2c(C)cc(C)[nH]c2=O)c1C)C1CCOCC1 + Cc1cncc(-c2nc(NCCc3c[nH]c4ccccc34)c3ncn(C(C)C)c3n2)c1 .
30.9

Okay, next one:
Reported viability, T/C for 699152-130-R-J1-PDC complex spheroid growth, given CCc1c2c(nc3ccc(O)cc13)-c1cc3c(c(=O)n1C2)COC(=O)[C@]3(O)CC + Cc1ccccc1N=Nc1ccc(NC(=O)c2ccnn2C)c(C)c1 ?
51.2

====

tested on: 699152-130-R-J1-PDC complex spheroid growth; test: Anticancer human tumor 699152-130-R-J1-PDC cell line growth inhibition [AhR]; settings: curve of first compound; second compound 3.16 µM;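 note: compound exposure lasted 7 days after spheroids had grown for 3 days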
pIC50: −log10 of the molar value.
result type: pIC50

# input compound: O=C(c1cc(Cc2n[nH]c(=O)c3ccccc23)ccc1F)N1CCN(C(=O)C2CC2)CC1 + CC(CO)NC(=O)c1cc(-c2ccc(Cl)cc2)nn(-c2cnn(C)c2)c1=O ; wanted: its pIC50
< 5.00

Now consider Cn1ncnc1C1c2n[nH]c(=O)c3cc(F)cc(c23)NC1c1ccc(F)cc1 (stereo unspecified) + CC(CO)NC(=O)c1cc(-c2ccc(Cl)cc2)nn(-c2cnn(C)c2)c1=O .
< 7.00

Now consider CC1(C)CCC(CN2CCN(c3ccc(C(=O)NS(=O)(=O)c4ccc(NCC5CCOCC5)c([N+](=O)[O-])c4)c(Oc4cnc5[nH]ccc5c4)c3)CC2)=C(c2ccc(Cl)cc2)C1 + CC(CO)NC(=O)c1cc(-c2ccc(Cl)cc2)nn(-c2cnn(C)c2)c1=O .
< 5.00

Now consider CC1(C)CCC(CN2CCN(c3ccc(C(=O)NS(=O)(=O)c4ccc(NCC5CCOCC5)c([N+](=O)[O-])c4)c(Oc4cnc5[nH]ccc5c4)c3)CC2)=C(c2ccc(Cl)cc2)C1 + Cc1cncc(-c2nc(NCCc3c[nH]c4ccccc34)c3ncn(C(C)C)c3n2)c1 .
< 5.00

Now consider O=C(c1cc(Cc2n[nH]c(=O)c3ccccc23)ccc1F)N1CCN(C(=O)C2CC2)CC1 + Cc1ccccc1N=Nc1ccc(NC(=O)c2ccnn2C)c(C)c1 .
< 5.00

Now consider CC1COCCN1c1cc(C2(S(C)(=N)=O)CC2)nc(-c2ccnc3[nH]ccc23)n1 (stereo unspecified) + Cc1ccccc1N=Nc1ccc(NC(=O)c2ccnn2C)c(C)c1 .
< 5.00

---
# input compound: Nc1ncn(C2CC(O)C(CO)S2)c(=O)n1 (stereo unspecified) + CC(CO)NC(=O)c1cc(-c2ccc(Cl)cc2)nn(-c2cnn(C)c2)c1=O ; wanted: its pIC50
< 6.52

Now consider CC[C@@]1(O)C(=O)OCc2c1cc1n(c2=O)Cc2cc3c(CN(C)C)c(O)ccc3nc2-1 + Cc1ccccc1N=Nc1ccc(NC(=O)c2ccnn2C)c(C)c1 .
< 7.00

Now consider CC(C)CC(NC(=O)C(Cc1ccccc1)NC(=O)c1cnccn1)B(O)O (stereo unspecified) + Cc1cncc(-c2nc(NCCc3c[nH]c4ccccc34)c3ncn(C(C)C)c3n2)c1 .
7.80

Now consider O=C(C=Cc1cccc(S(=O)(=O)Nc2ccccc2)c1)NO + Cc1cncc(-c2nc(NCCc3c[nH]c4ccccc34)c3ncn(C(C)C)c3n2)c1 .
< 5.00

Now consider CC1COCCN1c1cc(C2(S(C)(=N)=O)CC2)nc(-c2ccnc3[nH]ccc23)n1 (stereo unspecified) + CC(CO)NC(=O)c1cc(-c2ccc(Cl)cc2)nn(-c2cnn(C)c2)c1=O .
< 5.00
